Attribution: patent US6706664B1

system: velvetleaf; test: Soil treatment test for upland field; format: in vivo, Abutilon theophrasti; set-up: key: 0: normal development; 1: Less damaged; 2: Slightly damaged; 3: Moderately damaged; 4: Severely damaged; 5: All killed; conditions: 500 g/ha, glass house 25° C., 3 weeks
Entries annotated with measured Effects Velvetleaf
The reply should be a number, written without any unit.

- MOLECULE: "CCC(Oc1cccc(C(F)(F)F)c1)c1nc2cc(Cl)ccc2o1 (stereo not drawn)"
  PARAMETER: "Effects Velvetleaf"
  RESULT: 1
- MOLECULE: "CCCC(Oc1cccc(C#N)c1)c1nc2cc(Cl)c(C)cc2o1 (stereo not drawn)"
  PARAMETER: "Effects Velvetleaf"
  RESULT: 5
- MOLECULE: "CCC(Oc1ccc(F)c(C(F)(F)F)c1)c1nc2ccc(F)cc2o1 (stereo not drawn)"
  PARAMETER: "Effects Velvetleaf"
  RESULT: 1

// molecule CCC(Oc1ccc(Cl)c(C#N)c1)c1nc2cc(S(C)(=O)=O)ccc2o1 (stereo not drawn) , assay velvetleaf, Effects Velvetleaf value: 3

// molecule CCC(Oc1cccc(C(F)(F)F)c1)c1nc2cc(S(C)(=O)=O)ccc2o1 (stereo not drawn) , assay velvetleaf, Effects Velvetleaf value: 3

// molecule CCC(Oc1cccc(OC(F)(F)F)c1)c1nc2cc(C#N)ccc2o1 (stereo not drawn) , assay velvetleaf, Effects Velvetleaf value: 5

// molecule CCC(Oc1cccc(C(F)(F)F)c1)c1nc2cc(C#N)c(Cl)cc2o1 (stereo not drawn) , assay velvetleaf, Effects Velvetleaf value: 5

// molecule CCC(Oc1cccc(C(F)(F)F)c1)c1nc2cc(F)c(Cl)cc2o1 (stereo not drawn) , assay velvetleaf, Effects Velvetleaf value: 5
